// provenance: the supplement of paper PMC10724198

Tested on: Saccharomyces cerevisiae
Assay: protein stability index of tFT-peptide fusion (C-terminal peptide) (PSI (0-1 scale)); higher = more stable (slower turnover)
Settings: genetic background: wild type; temperature: 30 C
QUANTITY: protein stability index

[[record]]
sequence_code = "GELGGRSWVERG"
result = 0.648

[[record]]
sequence_code = "CHFLLHYVFLLS"
result = 0.417

[[record]]
sequence_code = "FSLFSLPFPFPL"
result = 0.775

[[record]]
sequence_code = "PVSPPLSLASPS"
result = 0.706

[[record]]
sequence_code = "RGGFVEGFVLVR"
result = 0.611

[[record]]
sequence_code = "RAIGSRIIIWGL"
result = 0.564

[[record]]
sequence_code = "DIRKAEISANFC"
result = 0.594

[[record]]
sequence_code = "GFLCLISSLGFM"
result = 0.687

[[record]]
sequence_code = "WSIEESLGIWLR"
result = 0.538

[[record]]
sequence_code = "WSWRGMVELVEE"
result = 0.642

[[record]]
sequence_code = "HRPPATFPVAHP"
result = 0.735

[[record]]
sequence_code = "EKKEVSLVKKGR"
result = 0.695

[[record]]
sequence_code = "LRLRGCSATVPG"
result = 0.752

[[record]]
sequence_code = "PIGAFLSFWGQW"
result = 0.828

[[record]]
sequence_code = "SSENIQLADQLR"
result = 0.702

[[record]]
sequence_code = "LEGGWRVGGGRL"
result = 0.683

[[record]]
sequence_code = "IFCRCNSTVLLI"
result = 0.451

[[record]]
sequence_code = "WGGRAVGVLGVG"
result = 0.629

[[record]]
sequence_code = "GGRRYSRPGQKH"
result = 0.661


====

System: Saccharomyces cerevisiae
Test: protein stability index of tFT-peptide fusion (C-terminal peptide) (PSI (0-1 scale)); higher = more stable (slower turnover)
Settings: genetic background: wild type; temperature: 30 C
# binarize protein stability index: threshold 0.7 inclusive, high side yes, low side no

[[record]]
sequence_code = "AKGKGKSDEKIL [YIL086C C-terminal 12 aa]"
assigned_class = "yes"

[[record]]
sequence_code = "VSPYDYNHKRVS [DIB1 C-terminal 12 aa]"
assigned_class = "no"

[[record]]
sequence_code = "PLMFHCTRWEVD [GEP5 C-terminal 12 aa]"
assigned_class = "yes"

[[record]]
sequence_code = "GYAKTWSIASAN [CTT1 C-terminal 12 aa]"
assigned_class = "no"

[[record]]
sequence_code = "LSDLHIKEAKID [OGG1 C-terminal 12 aa]"
assigned_class = "no"

[[record]]
sequence_code = "FFVFLFWWIFLK [SEC22 C-terminal 12 aa]"
assigned_class = "no"

[[record]]
sequence_code = "DVFEEIGYSMKD [SAE3 C-terminal 12 aa]"
assigned_class = "yes"

[[record]]
sequence_code = "KAEASEAAHDEL [CPR5 C-terminal 12 aa]"
assigned_class = "no"

[[record]]
sequence_code = "NGNNVASLNTKK [TAF12 C-terminal 12 aa]"
assigned_class = "no"

[[record]]
sequence_code = "TAIVAVVALLLL [DAN4 C-terminal 12 aa]"
assigned_class = "no"

[[record]]
sequence_code = "EFMKTNTGSKKV [CCR4 C-terminal 12 aa]"
assigned_class = "no"

[[record]]
sequence_code = "KVRTQSKQPQEE [SAW1 C-terminal 12 aa]"
assigned_class = "no"

[[record]]
sequence_code = "YLTFYKSPKTFY [YDR183C-A C-terminal 12 aa]"
assigned_class = "no"

[[record]]
sequence_code = "LSQRAWATKKPI [YJL028W C-terminal 12 aa]"
assigned_class = "yes"

[[record]]
sequence_code = "DILGSLLAKKRK [MRE11 C-terminal 12 aa]"
assigned_class = "no"

[[record]]
sequence_code = "ALSEYMENTSGL [RSC9 C-terminal 12 aa]"
assigned_class = "yes"


====

protein stability index listing for selected sequences.
Tested on: Saccharomyces cerevisiae
Assay: protein stability index of tFT-peptide fusion (C-terminal peptide) (PSI (0-1 scale)); higher = more stable (slower turnover)
Settings: genetic background: wild type; temperature: 30 C
QUANTITY: protein stability index

[[record]]
sequence_code = "VGNNERDLQQIE"
quantity = "protein stability index"
measured_number = 0.665

[[record]]
sequence_code = "TSIREVPAPCSH"
quantity = "protein stability index"
measured_number = 0.756

[[record]]
sequence_code = "WGGGGRLAGLLG"
quantity = "protein stability index"
measured_number = 0.687

[[record]]
sequence_code = "ARRPAESHGTTI"
quantity = "protein stability index"
measured_number = 0.716

[[record]]
sequence_code = "EIKEEKEHRNQE"
quantity = "protein stability index"
measured_number = 0.696

[[record]]
sequence_code = "TVCGTLISFVEG"
quantity = "protein stability index"
measured_number = 0.694

[[record]]
sequence_code = "HKLYATANHSPM"
quantity = "protein stability index"
measured_number = 0.672

[[record]]
sequence_code = "GYSMPVSFFFAL"
quantity = "protein stability index"
measured_number = 0.356

[[record]]
sequence_code = "VFLFSLLIVFFP"
quantity = "protein stability index"
measured_number = 0.219

[[record]]
sequence_code = "FILERSLLSLQG"
quantity = "protein stability index"
measured_number = 0.678

[[record]]
sequence_code = "GGVVVRGRASAR"
quantity = "protein stability index"
measured_number = 0.717

[[record]]
sequence_code = "PLASPYRLCPVP"
quantity = "protein stability index"
measured_number = 0.624

[[record]]
sequence_code = "SFSAFRCDPAEM"
quantity = "protein stability index"
measured_number = 0.676

[[record]]
sequence_code = "SPSLSFVFPVSL"
quantity = "protein stability index"
measured_number = 0.756

[[record]]
sequence_code = "VPSGTHHPFTLS"
quantity = "protein stability index"
measured_number = 0.751

[[record]]
sequence_code = "GGGVGWWVSYVG"
quantity = "protein stability index"
measured_number = 0.673

[[record]]
sequence_code = "GGVVVGRGVCVF"
quantity = "protein stability index"
measured_number = 0.626

[[record]]
sequence_code = "PPLPAPPQSPHT"
quantity = "protein stability index"
measured_number = 0.705

[[record]]
sequence_code = "RLPSSNVRYWVS"
quantity = "protein stability index"
measured_number = 0.235


====

Tested on: Saccharomyces cerevisiae
Experiment: protein stability index of tFT-peptide fusion (C-terminal peptide) (PSI (0-1 scale)); higher = more stable (slower turnover)
Conditions: genetic background: wild type; temperature: 30 C
protein stability index values for the sequences below.
QUANTITY: protein stability index

[[record]]
sequence_code = "LWAPFWVSRVTA"
quantity = "protein stability index"
result = 0.247

[[record]]
sequence_code = "TGRLFVSLRVWY"
quantity = "protein stability index"
result = 0.305

[[record]]
sequence_code = "CFFICGVFVFLM"
quantity = "protein stability index"
result = 0.244

[[record]]
sequence_code = "IFSGCRIALSVF"
quantity = "protein stability index"
result = 0.116

[[record]]
sequence_code = "LFVVFVLLTFFV"
quantity = "protein stability index"
result = 0.217

[[record]]
sequence_code = "MMYTLSMLLRLR"
quantity = "protein stability index"
result = 0.52

[[record]]
sequence_code = "RRMGLRLFLLWM"
quantity = "protein stability index"
result = 0.348

[[record]]
sequence_code = "TYSVIPSLALLP"
quantity = "protein stability index"
result = 0.652

[[record]]
sequence_code = "CFCSFQFVRLWV"
quantity = "protein stability index"
result = 0.444

[[record]]
sequence_code = "KMKGLINKRKES"
quantity = "protein stability index"
result = 0.12

[[record]]
sequence_code = "TLWWRQPFWGFG"
quantity = "protein stability index"
result = 0.702

[[record]]
sequence_code = "SSLRATLLIRAV"
quantity = "protein stability index"
result = 0.371

[[record]]
sequence_code = "SYALGNVVGGSL"
quantity = "protein stability index"
result = 0.645

[[record]]
sequence_code = "FVFAMSECIVLS"
quantity = "protein stability index"
result = 0.214

[[record]]
sequence_code = "SVSQTSILDSRL"
quantity = "protein stability index"
result = 0.675

[[record]]
sequence_code = "FWHGRCPGLYLV"
quantity = "protein stability index"
result = 0.169

[[record]]
sequence_code = "VFLFSLLIVFFP"
quantity = "protein stability index"
result = 0.216

[[record]]
sequence_code = "ALFISLAIWNWS"
quantity = "protein stability index"
result = 0.139

[[record]]
sequence_code = "GVLRMAPGRVMC"
quantity = "protein stability index"
result = 0.175

[[record]]
sequence_code = "LVPLSLLLCFFV"
quantity = "protein stability index"
result = 0.205

[[record]]
sequence_code = "LCSCMWISAIAI"
quantity = "protein stability index"
result = 0.435

[[record]]
sequence_code = "FITFLVFVGFFL"
quantity = "protein stability index"
result = 0.295

[[record]]
sequence_code = "FLLCRVFVLLRS"
quantity = "protein stability index"
result = 0.102

[[record]]
sequence_code = "QCRLPRPPLSLP"
quantity = "protein stability index"
result = 0.692

[[record]]
sequence_code = "ASLSSSRPPLLP"
quantity = "protein stability index"
result = 0.648

[[record]]
sequence_code = "FVVLVFMLGSVC"
quantity = "protein stability index"
result = 0.245

[[record]]
sequence_code = "RGPAYATCHLLC"
quantity = "protein stability index"
result = 0.141

[[record]]
sequence_code = "PVALYPVQAYLT"
quantity = "protein stability index"
result = 0.146

[[record]]
sequence_code = "YLGSPLSLMLVA"
quantity = "protein stability index"
result = 0.355

[[record]]
sequence_code = "NYFRPWLIFHKC"
quantity = "protein stability index"
result = 0.309

[[record]]
sequence_code = "GWVVVVCGVCCG"
quantity = "protein stability index"
result = 0.196

[[record]]
sequence_code = "EKTKTKRERKIN"
quantity = "protein stability index"
result = 0.191

[[record]]
sequence_code = "RNTLLFKRILHI"
quantity = "protein stability index"
result = 0.108

[[record]]
sequence_code = "WSLPPLLSPLYF"
quantity = "protein stability index"
result = 0.672

[[record]]
sequence_code = "VRHPVVVVRRVI"
quantity = "protein stability index"
result = 0.411

[[record]]
sequence_code = "ISAVLFFLYLSF"
quantity = "protein stability index"
result = 0.246

[[record]]
sequence_code = "LWGLVWGGVWGV"
quantity = "protein stability index"
result = 0.573

[[record]]
sequence_code = "TSRRPFVLVMWL"
quantity = "protein stability index"
result = 0.388

[[record]]
sequence_code = "SGVVWFYIFCLS"
quantity = "protein stability index"
result = 0.279

[[record]]
sequence_code = "VLLCGRMVVVEW"
quantity = "protein stability index"
result = 0.153

[[record]]
sequence_code = "GPGTWLFCFVRF"
quantity = "protein stability index"
result = 0.42

